Sourced from patent US20230302159A1

method.description: Optical properties of the CypH dyes: absorbance maximum and extinction coefficient in EtOH (Table 1)
Format: physicochemical
conditions.used: at absorbance maximum
Description: Characterization: All new CypH dyes were characterized by proton NMR and mass spectrometry to confirm identity. NMR data was consistent with the structure and mass spectrometry results gave the expected mass of the dye±0.5 amu. An HPLC method was developed (see below) and used to assess dye purity. […] Optical properties of the dyes, acid dissociation constants and solubilities were also determined. […]

compound	Ex Coeff (M^−1cm^−1) @ Abs Max
CCCN1/C(=C/C=C2\CCCC(/C=C/C3=[N+](CCC)c4ccccc4C3(C)C)=C2Oc2ccc(N(C)C)cc2)C(C)(C)c2ccccc21.[I-]	251,500 M^−1cm^−1
CCN(C)c1ccc(OC2=C(/C=C/C3=[N+](C)c4ccccc4C3(C)C)CC/C2=C\C=C2\N(C)c3ccccc3C2(C)C)cc1.[Cl-]	72,700 M^−1cm^−1
CN(C)c1ccc(OC2=C(/C=C/C3=[N+](C)c4ccccc4C3(C)C)CCC/C2=C\C=C2\N(C)c3ccccc3C2(C)C)cc1.[Cl-] [CypH-1, reference compound]	74,450 M^−1cm^−1
CCN(C)c1ccc(OC2=C(/C=C/C3=[N+](CC)c4ccccc4C3(C)C)CCC/C2=C\C=C2\N(CC)c3ccccc3C2(C)C)cc1	179,500 M^−1cm^−1
CCCN1/C(=C/C=C2\CCCC(/C=C/C3=[N+](CCC)c4ccccc4C3(C)C)=C2Oc2ccc(N(C)C(C)C)cc2)C(C)(C)c2ccccc21.[I-]	248,000 M^−1cm^−1
CC(C)N(C)c1ccc(OC2=C(/C=C/C3=[N+](C(C)C)c4ccccc4C3(C)C)CCC/C2=C\C=C2\N(C(C)C)c3ccccc3C2(C)C)cc1.[I-]	233,800 M^−1cm^−1
CC(C)CN1/C(=C/C=C2\CCCC(/C=C/C3=[N+](CC(C)C)c4ccccc4C3(C)C)=C2Oc2ccc(N(C)C)cc2)C(C)(C)c2ccccc21.[I-]	240,900 M^−1cm^−1
CN(C)c1ccc(OC2=C(/C=C/C3=[N+](C)c4ccccc4C3(C)C)CC/C2=C\C=C2\N(C)c3ccccc3C2(C)C)cc1.[Cl-]	58,000 M^−1cm^−1
CCN1/C(=C/C=C2\CCCC(/C=C/C3=[N+](CC)c4ccccc4C3(C)C)=C2Oc2ccc(N(C)C(C)C)cc2)C(C)(C)c2ccccc21	175,400 M^−1cm^−1
CCCN1/C(=C/C=C2\CCCC(/C=C/C3=[N+](CCC)c4ccccc4C3(C)C)=C2Oc2ccc(N(C)CC)cc2)C(C)(C)c2ccccc21.[I-]	257,300 M^−1cm^−1
CC(C)CN1/C(=C/C=C2\CCCC(/C=C/C3=[N+](CC(C)C)c4ccccc4C3(C)C)=C2Oc2ccc(N(C)C(C)C)cc2)C(C)(C)c2ccccc21.[I-]	218,100 M^−1cm^−1
CCN(C)c1ccc(OC2=C(/C=C/C3=[N+](C(C)C)c4ccccc4C3(C)C)CCC/C2=C\C=C2\N(C(C)C)c3ccccc3C2(C)C)cc1	269,100 M^−1cm^−1
CCN(CC)c1ccc(OC2=C(/C=C/C3=[N+](C)c4ccccc4C3(C)C)CCC/C2=C\C=C2\N(C)c3ccccc3C2(C)C)cc1.[Cl-]	215,800 M^−1cm^−1
